Measured OD450 by item
biological target: T1, human MSLN-R3-his protein (human, UniProt Q13421 487-598); assay: ELISA on coated MSLN-R3; antibody 0.0001 nM
T1 construct: Region 3 of human mesothelin, made in HEK293E cells, His-tagged; also called human MSLN-R3 protein; hMSLN-R3-his; not shown: His tag
T1 sequence (Q13421 495-606): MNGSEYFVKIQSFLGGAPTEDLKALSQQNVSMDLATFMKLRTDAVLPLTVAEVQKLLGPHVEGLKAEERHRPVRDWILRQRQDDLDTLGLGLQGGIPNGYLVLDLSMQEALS
Unit OD450 implied. Number only.

Solved cases (2 shown):
binder	value
S009-F8-4.5 (antibody, human IgG1, kappa, V domains shown) VH: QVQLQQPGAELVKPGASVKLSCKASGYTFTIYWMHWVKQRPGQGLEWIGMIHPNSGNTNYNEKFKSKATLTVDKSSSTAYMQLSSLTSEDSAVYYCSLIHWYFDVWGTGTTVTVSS VL: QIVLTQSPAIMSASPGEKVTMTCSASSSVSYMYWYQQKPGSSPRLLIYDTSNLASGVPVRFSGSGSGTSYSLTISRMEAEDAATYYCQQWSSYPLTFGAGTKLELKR	0.05
S009-F8-28.23 (antibody, human IgG1, kappa, V domains shown) VH: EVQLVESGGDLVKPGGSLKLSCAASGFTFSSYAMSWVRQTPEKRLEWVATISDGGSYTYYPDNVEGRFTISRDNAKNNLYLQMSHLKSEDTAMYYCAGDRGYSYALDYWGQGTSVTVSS VL: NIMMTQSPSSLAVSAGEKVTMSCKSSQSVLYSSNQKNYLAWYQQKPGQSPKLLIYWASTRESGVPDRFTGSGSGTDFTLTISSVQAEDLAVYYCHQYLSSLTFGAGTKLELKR	0.04

Looking for the measured OD450 of S009-F8-36.12 (antibody, human IgG1, kappa, V domains shown) VH: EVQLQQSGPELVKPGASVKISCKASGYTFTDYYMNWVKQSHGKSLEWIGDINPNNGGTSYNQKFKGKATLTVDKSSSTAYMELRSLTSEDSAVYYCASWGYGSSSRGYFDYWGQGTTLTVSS VL: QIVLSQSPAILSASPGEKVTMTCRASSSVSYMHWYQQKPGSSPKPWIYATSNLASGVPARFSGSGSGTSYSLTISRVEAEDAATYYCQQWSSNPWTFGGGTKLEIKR , can you help?
0.04
